Numbers sourced from ChEMBL document CHEMBL1201861.

tested on: HSC-3; assay: cells; assay type: functional, cell-based; conditions: Homo sapiens
Description: SANGER: Inhibition of human HSC-3 cell growth in a cell viability assay.
pIC50: −log10 of the molar value.
readout.label: pIC50

Input: Requested read-out: pIC50. Entry: CN(C)CCOc1ccc(-c2nc(-c3ccncc3)c(-c3ccc4c(c3)CC/C4=N\O)[nH]2)cc1 [SB590885]
Output: < 5.30

Input: Recorded pIC50 for CO[C@@H]1[C@H](N(C)C(=O)c2ccccc2)C[C@H]2O[C@]1(C)n1c3ccccc3c3c4c(c5c6ccccc6n2c5c31)C(=O)NC4 [MIDOSTAURIN] , please?
Output: < 6.29

Input: Returns the measured pIC50 for the input compound. Input: Cc1ccc(-n2nc(C(C)(C)C)cc2NC(=O)Nc2ccc(OCCN3CCOCC3)c3ccccc23)cc1 [DORAMAPIMOD]
Output: < 5.00

====

Hi there, I'd appreciate the recorded IC50 for every entry that follows.
system: IST-MES1; test: cells; assay type: functional, cell-based, Homo sapiens; conditions: Homo sapiens, IST-MES1;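 further: growth inhibition of IST-MES1 cells, measured with a cell viability assay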
Description: SANGER: Inhibition of human IST-MES1 cell growth in a cell viability assay.

Input: Suppose we examine the molecule Nc1ccccc1NC(=O)c1ccc(CNC(=O)OCc2cccnc2)cc1 [ENTINOSTAT] ; what IC50 value has been reported?
Output: 3.18 µM

Input: # lookup: IC50 of CS(=O)(=O)N1CCN(Cc2cc3nc(-c4cccc5[nH]ncc45)nc(N4CCOCC4)c3s2)CC1 [PICTILISIB]
Output: > 4 µM

Input: // lookup IC50 for COC(=O)[C@H](CCSC)NC(=O)c1ccc(NC[C@@H](N)CS)cc1-c1ccccc1
Output: > 1.02 µM

Input: Look up IC50 for this molecule: CN(C)CCOc1ccc(-c2nc(-c3ccncc3)c(-c3ccc4c(c3)CC/C4=N\O)[nH]2)cc1 [SB590885]
Output: > 5 µM

Input: # query: IC50 of entry CC1=C(/C=C/C(C)=C/C=C/C(C)=C/C(=O)O)C(C)(C)CCC1 [TRETINOIN]
Output: > 10 µM

Input: Request the reported IC50 associated with Cc1ccc(C(=O)Nc2ccc(CN3CCN(C)CC3)c(C(F)(F)F)c2)cc1C#Cc1cnc2cccnn12 [PONATINIB]
Output: 0.268 µM

Input: Any idea what its IC50 is? The molecule is C/C(=C\c1csc(C)n1)[C@@H]1C[C@@H]2O[C@]2(C)CCC[C@H](C)[C@H](O)[C@@H](C)C(=O)C(C)(C)[C@@H](O)CC(=O)O1 [PATUPILONE]
Output: > 0.032 µM

====

Would you kindly list IC50 for each of these molecules?
test system: SCC-15; experiment: cells; format: functional, cell-based, Homo sapiens; conditions: Homo sapiens, SCC-15;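 further: growth inhibition of SCC-15 cells, read out with a cell viability assay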
Description: SANGER: Inhibition of human SCC-15 cell growth in a cell viability assay.

Input: May I ask what IC50 has been recorded for NC(=O)c1ccc(N(C(N)=O)c2c(F)cccc2F)nc1-c1ccc(F)cc1F ?
Output: > 2000 nM

Input: For CC1(C)CCC(c2ccc(Cl)cc2)=C(CN2CCN(c3ccc(C(=O)NS(=O)(=O)c4ccc(N[C@H](CCN5CCOCC5)CSc5ccccc5)c(S(=O)(=O)C(F)(F)F)c4)cc3)CC2)C1 , what is its reported IC50?
Output: > 2000 nM

Input: I am curious: what IC50 value has been reported for NC1(c2ccc(-c3nc4ccn5c(=O)[nH]nc5c4cc3-c3ccccc3)cc2)CCC1 ?
Output: > 4000 nM

====

tested on: LC-2-ad; assay: cells; type: functional, cell-based, Homo sapiens; details: Homo sapiens, LC-2-ad
Description: SANGER: Inhibition of human LC-2-ad cell growth in a cell viability assay.
pIC50: −log10 of the molar value.
readout.label: pIC50

Input: Which pIC50 value is on record for NC(=O)c1ccc(N(C(N)=O)c2c(F)cccc2F)nc1-c1ccc(F)cc1F ?
Output: < 5.70

Input: # get_value(readout='pIC50', item= NC1(c2ccc(-c3nc4ccn5c(=O)[nH]nc5c4cc3-c3ccccc3)cc2)CCC1 )
Output: < 5.40

Input: Which measured pIC50 value corresponds to CN(C)CCOc1ccc(-c2nc(-c3ccncc3)c(-c3ccc4c(c3)CC/C4=N\O)[nH]2)cc1 ?
Output: < 5.30
